Data origin, for the record: patent US20250136687A1

target: T1, human CD3ε/δ-His (human, UniProt P07766 23-126; P04234 22-105); experiment: SPR, antibody captured on Protein A chip
T1 construct: Bought recombinant heterodimer with His tag; also called human CD3ε/δ protein
T1 sequence (P07766 23-126, stated change not applied, form in doubt, chain 1 of 2): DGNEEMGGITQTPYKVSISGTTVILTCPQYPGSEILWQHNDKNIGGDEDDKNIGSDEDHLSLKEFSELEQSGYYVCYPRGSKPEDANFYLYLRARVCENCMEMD
T1 sequence (P04234 22-105, stated change not applied, form in doubt, chain 2 of 2): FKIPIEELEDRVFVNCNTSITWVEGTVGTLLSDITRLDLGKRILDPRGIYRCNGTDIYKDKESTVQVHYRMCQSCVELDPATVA
measured-property: koff (s⁻¹)
Number in s⁻¹, nothing else.

Lab book: koff of 5-7.13-H1a-L2 humanized antibody (antibody, human IgG1, kappa, V domains shown) VH: EVQLVQSGAEVKKPGASVKVSCKASGYTFTSYWVHWVRQAPGQRLEWMGNINPSDGVTNYNEKFKSRVTITVDKSASTAYMELSSLRSEDTAVYYCTRDAYGQYYFDNWGQGTTVTVSS VL: DIVMTQTPLSLPVTPGEPASISCKSSQSLLNSRTRKNYLAWYLQKPGQSPQLLIYWASVRDSGVPDRFSGSGSGTDFTLKISRVEAEDVGVYYCIQSYYLRTFGGGTKVEIKR noted as 0.00983

Lab book: koff of 5-40.21-H3-L1 humanized antibody (antibody, human IgG1, kappa, V domains shown) VH: EVQLVQSGAEVKKPGASVKVSCKASGYTFTSYWMHWVRQAPGQGLEWMGNTYPGSGSTNYDEKFKSRVTITVDSSASTAYMELSSLRSEDTAVYYCTRDRYGVYYFDYWGQGTTVTVSS VL: DIVMTQSPDSLAVSLGERATINCKSSQSLLNSRTRKNYLAWYQQKPGQSPKLLIYWASTRESGVPDRFSGSGSGTDFTLTISSLQAEDVAVYYCTQSYNLRTFGGGTKVEIKR noted as 0.0184

Lab book: koff of 7-35.6-H2-L3 humanized antibody (antibody, human IgG1, lambda, V domains shown) VH: EVQLVESGGGLVQPGGSLKLSCAASGFTFNTYAMNWVRQASGKGLEWVGRIRSKINNYATYYGDSVKDRFTISRDDSKNTFYLQMNSLKTEDTAVYYCVIHENYGSISWFAYWGQGTLVTVSS VL: ETVVTQEPSLTVSPGGTVTLTCRSSTGAVTTSNYANWVQQKPGQAFTGLIGGTNNRAPWTPARFSGSLLGGKAALTLSGVQPEDEAEYYCALWYSNHWVFGGGTKLTVLG noted as 0.0335

Lab book: koff of 6-44.5-H1-L2 humanized antibody (antibody, human IgG1, kappa, V domains shown) VH: EVQLVQSGAEVKKPGSSVKVSCKASGHTFSSHIMHWVRQAPGQGLEWMGYINPNNDRTEYSEKFKGRVTITADKSTSTAYMELSSLRSEDTAVYYCAGEAYYSNSLYAMDYWGQGTTVTVSS VL: DIVMTQSPDSLAVSLGERATINCKSSQSLFNSRTRKNYLAWYQQKPGQSPKLLIYWASTRESGVPDRFSGSGSGTDFTLTISSLQAEDVAVYYCKQSYYLRTFGGGTKVEIKR noted as 0.0339

Lab book: koff of 40G5c-hIgG1 (antibody, V domains shown) VH: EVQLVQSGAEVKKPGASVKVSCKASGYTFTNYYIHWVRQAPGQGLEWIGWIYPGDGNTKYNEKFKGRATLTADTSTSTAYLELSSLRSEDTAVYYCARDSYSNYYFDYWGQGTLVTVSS VL: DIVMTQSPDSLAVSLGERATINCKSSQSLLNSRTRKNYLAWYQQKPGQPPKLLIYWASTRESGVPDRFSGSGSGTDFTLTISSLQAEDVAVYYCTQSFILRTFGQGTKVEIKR noted as 0.0327

Lab book: koff of 8-18.1-H1-L2 humanized antibody (antibody, human IgG1, kappa, V domains shown) VH: EVQLVQSGAEVKKPGASVKVSCKASGYTFTMNTMHWVRQAPGQRLEWMGYINPYSGYTKYNQIFKDRVTITADKSASTAYMELSSLRSEDTAVYYCLRGGEGVWGQGTTVTVSS VL: DVVMTQSPLSLPVTLGQPASISCKSSQSLLDSDGKTYLNWLQQRPGQSPRRLIYLVSELGSGVPDRFSGSGSGTDFTLKISRVEAEDVGVYYCWQGTHFPRTFGGGTKVEIKR noted as 0.0317
